# assay info: Tmax in human plasma at 8 mg, po
# Type: ADME, cell-free
quantity name: Tmax

> print(dat)
                                   molecule  quantity.name  endpoint.value
1  COc1cc2c(cc1OC)C(=O)C(CC1(F)CCN(Cc3ccccc3F)CC1)C2 (stereo unspecified)           Tmax          1.13 h

----------
# assay info: Efflux ratio of apparent permeability across basolateral to apical side over apical to basolateral side in human Caco-2 cells
# Assay type: ADME, cell-based
quantity name: efflux ratio

> print(dat)
                                   compound  quantity.name  endpoint.value
1  COc1cc2c(cc1OC)C(=O)C(CC1(F)CCN(Cc3ccccc3F)CC1)C2 (stereo unspecified)   efflux ratio            0.67

----------
# assay info: MRT in Sprague-Dawley rat brain at 10 mg/kg, po
# Type: ADME, organism-based
quantity name: MRT (h)

> print(dat)
                                   compound  endpoint.value
1  COc1cc2c(cc1OC)C(=O)C(CC1(F)CCN(Cc3ccccc3F)CC1)C2 (stereo unspecified)             8.9

----------
# assay info: Terminal half life in human plasma at 8 mg, po
# Format: ADME, cell-free
# applied conditions: read-out: beta t1/2 (converted)
quantity name: half-life (h)

> print(dat)
                                   molecule  quantity.name  endpoint.value
1  COc1cc2c(cc1OC)C(=O)C(CC1(F)CCN(Cc3ccccc3F)CC1)C2 (stereo unspecified)      half-life            27.6

----------
# assay info: Clearance in Beagle dog at 0.25 mg/kg, iv
# Type: ADME, organism-based, Canis lupus familiaris
# applied conditions: in vivo
quantity name: clearance (mL/min/kg)

> print(dat)
                                   molecule  quantity.name  endpoint.value
1  COc1cc2c(cc1OC)C(=O)C(CC1(F)CCN(Cc3ccccc3F)CC1)C2 (stereo unspecified)      clearance            17.5

----------
# assay info: Protein binding in dog plasma
# Type: ADME, cell-free, Canis lupus familiaris
# applied conditions: read-out: PPB (converted)
quantity name: fraction unbound

> print(dat)
                                   molecule     quantity.name  endpoint.value
1  COc1cc2c(cc1OC)C(=O)C(CC1(F)CCN(Cc3ccccc3F)CC1)C2 (stereo unspecified)  fraction unbound           0.035

----------
# assay info: Terminal half life in human plasma at 12 mg, po
# Assay type: ADME, cell-free
# applied conditions: read-out: beta t1/2 (converted)
quantity name: half-life (min)

> print(dat)
                                   compound  endpoint.value
1  COc1cc2c(cc1OC)C(=O)C(CC1(F)CCN(Cc3ccccc3F)CC1)C2 (stereo unspecified)            1930

----------
# assay info: Volume of distribution at steady state in Beagle dog at 0.5 mg/kg, po or iv
# Format: ADME, organism-based, Canis lupus familiaris
# applied conditions: in vivo, read-out: Vdss
quantity name: Vd (L/kg)

> print(dat)
                                   molecule  endpoint.value
1  COc1cc2c(cc1OC)C(=O)C(CC1(F)CCN(Cc3ccccc3F)CC1)C2 (stereo unspecified)            23.2

Cited source: ChEMBL document CHEMBL4813953
